- System under test: Levetiracetam Binding Site (LBS) (Rattus norvegicus, UniProt Q02563)
- Construct: from tissue; host or cells: rat cerebral cortex crude membranes (male Sprague-Dawley)
- Sequence (Q02563 whole entry): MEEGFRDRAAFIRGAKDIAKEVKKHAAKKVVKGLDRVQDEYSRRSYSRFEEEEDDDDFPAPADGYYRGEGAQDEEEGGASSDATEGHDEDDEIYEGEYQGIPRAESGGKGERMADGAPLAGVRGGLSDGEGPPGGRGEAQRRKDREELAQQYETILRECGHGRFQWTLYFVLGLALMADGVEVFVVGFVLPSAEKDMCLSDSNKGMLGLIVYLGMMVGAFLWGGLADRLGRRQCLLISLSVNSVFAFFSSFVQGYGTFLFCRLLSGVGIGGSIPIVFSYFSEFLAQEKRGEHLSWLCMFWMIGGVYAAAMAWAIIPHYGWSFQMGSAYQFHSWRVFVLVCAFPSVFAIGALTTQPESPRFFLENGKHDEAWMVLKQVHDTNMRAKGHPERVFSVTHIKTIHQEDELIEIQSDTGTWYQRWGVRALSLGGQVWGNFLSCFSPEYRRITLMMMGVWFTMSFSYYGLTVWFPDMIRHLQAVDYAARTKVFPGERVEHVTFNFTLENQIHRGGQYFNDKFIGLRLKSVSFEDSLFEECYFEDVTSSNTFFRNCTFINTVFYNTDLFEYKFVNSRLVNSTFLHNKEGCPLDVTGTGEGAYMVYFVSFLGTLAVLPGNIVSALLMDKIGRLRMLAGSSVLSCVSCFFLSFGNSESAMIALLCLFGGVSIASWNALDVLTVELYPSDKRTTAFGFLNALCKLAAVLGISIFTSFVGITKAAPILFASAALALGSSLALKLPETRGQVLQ
- Test description: LBS binding assay
- Set-up: species or system Sprague-Dawley rats
- Experimental: [LBS stands for Levetiracetam Binding Site cf. M. Noyer et al., Eur. J. Pharmacol., 286 (1995) 137-146.] The inhibition constant (Ki) of a compound is determined in competitive binding experiments by measuring the binding of a single concentration of a radioactive ligand at equilibrium with various concentrations of the unlabeled test substance. The concentration of the test substance inhibiting 50% of the specific binding of the radioligand is called the IC50. […]
pKi: −log10 of the molar value.
Property name: pKi

Specify measured pKi for `CCC[C@@H]1CC(=O)N([C@@H](CC)C(N)=O)C1` .
≥ 6.00
